Reported Jagged1/293T X Geo mean values are given for each entry in this list.
Molecular target: T1, human Jagged1 (human, UniProt P78504 34-1218)
T1 construct: whole, on cells
T1 sequence (P78504 34-1218): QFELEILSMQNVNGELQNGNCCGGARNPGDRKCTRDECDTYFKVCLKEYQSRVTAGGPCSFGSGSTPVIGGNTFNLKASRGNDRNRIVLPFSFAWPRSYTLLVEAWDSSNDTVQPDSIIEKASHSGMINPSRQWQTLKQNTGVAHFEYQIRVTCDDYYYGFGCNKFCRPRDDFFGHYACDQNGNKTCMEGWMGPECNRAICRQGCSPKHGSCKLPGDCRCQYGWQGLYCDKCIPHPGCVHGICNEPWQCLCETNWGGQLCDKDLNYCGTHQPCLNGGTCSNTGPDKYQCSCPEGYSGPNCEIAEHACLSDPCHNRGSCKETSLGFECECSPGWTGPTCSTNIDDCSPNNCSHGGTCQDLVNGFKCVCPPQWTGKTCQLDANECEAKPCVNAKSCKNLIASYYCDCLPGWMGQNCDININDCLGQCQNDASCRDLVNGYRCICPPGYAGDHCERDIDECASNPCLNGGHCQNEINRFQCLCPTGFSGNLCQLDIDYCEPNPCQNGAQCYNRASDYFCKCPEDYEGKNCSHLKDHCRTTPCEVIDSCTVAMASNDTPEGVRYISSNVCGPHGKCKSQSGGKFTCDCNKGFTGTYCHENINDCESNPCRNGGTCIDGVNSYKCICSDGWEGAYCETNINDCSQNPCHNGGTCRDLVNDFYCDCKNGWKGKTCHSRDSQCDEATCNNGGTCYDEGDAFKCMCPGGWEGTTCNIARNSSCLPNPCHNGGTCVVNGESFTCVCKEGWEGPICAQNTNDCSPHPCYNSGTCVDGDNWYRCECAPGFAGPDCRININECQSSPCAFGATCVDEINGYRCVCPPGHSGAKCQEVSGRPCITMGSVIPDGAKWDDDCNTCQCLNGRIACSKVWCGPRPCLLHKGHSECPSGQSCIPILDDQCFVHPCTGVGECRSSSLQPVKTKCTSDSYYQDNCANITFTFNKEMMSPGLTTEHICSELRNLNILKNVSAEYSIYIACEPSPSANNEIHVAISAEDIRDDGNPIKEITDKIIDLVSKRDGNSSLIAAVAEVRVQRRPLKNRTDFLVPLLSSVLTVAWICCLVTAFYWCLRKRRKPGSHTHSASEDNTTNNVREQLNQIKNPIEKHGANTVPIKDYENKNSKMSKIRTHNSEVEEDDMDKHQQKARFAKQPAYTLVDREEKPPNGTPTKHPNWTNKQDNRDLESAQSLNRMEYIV
Assay: FACS, 5 µg/ml, 293T cells with human Jagged1
Form field (numeric): enter value without unit.

Challenge: Can you look up the measured Jagged1/293T X Geo mean of 9G8 (antibody, IgG4, V domains shown, Fully human; used for IgG4 rows and where no isotype is printed; also called 9G8 IgG4) VH: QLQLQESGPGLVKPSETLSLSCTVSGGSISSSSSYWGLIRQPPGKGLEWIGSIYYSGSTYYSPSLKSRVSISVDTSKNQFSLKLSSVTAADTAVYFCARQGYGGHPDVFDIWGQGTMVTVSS VL: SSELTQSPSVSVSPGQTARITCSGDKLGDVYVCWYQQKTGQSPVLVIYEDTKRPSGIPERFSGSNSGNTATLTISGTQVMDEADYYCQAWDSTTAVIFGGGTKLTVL for me?
Response given: 17.4

Challenge: 2H10 (antibody, IgG4, V domains shown, Fully human; used for IgG4 rows and where no isotype is printed; also called 2H10 IgG4) VH: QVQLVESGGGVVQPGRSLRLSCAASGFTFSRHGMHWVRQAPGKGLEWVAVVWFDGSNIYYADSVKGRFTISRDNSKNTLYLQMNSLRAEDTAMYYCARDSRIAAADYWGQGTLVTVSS VL: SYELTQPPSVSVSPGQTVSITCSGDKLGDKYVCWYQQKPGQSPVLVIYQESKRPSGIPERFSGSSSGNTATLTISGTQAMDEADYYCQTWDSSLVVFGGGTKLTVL ?
Response given: 9.28

Challenge: 4B3 (antibody, IgG4, V domains shown, Fully human; also used where no isotype is printed) VH: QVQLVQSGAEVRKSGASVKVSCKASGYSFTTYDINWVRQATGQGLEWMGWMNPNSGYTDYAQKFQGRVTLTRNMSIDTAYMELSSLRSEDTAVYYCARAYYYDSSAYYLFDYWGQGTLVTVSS VL: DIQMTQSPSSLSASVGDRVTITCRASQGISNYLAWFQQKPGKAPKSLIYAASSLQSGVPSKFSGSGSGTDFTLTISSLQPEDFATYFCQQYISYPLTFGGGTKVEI ?
Response given: 18.7
